Molecular target: T1, PUF4 RNA-binding domain (Saccharomyces cerevisiae, UniProt P25339 537-888)
T1 sequence: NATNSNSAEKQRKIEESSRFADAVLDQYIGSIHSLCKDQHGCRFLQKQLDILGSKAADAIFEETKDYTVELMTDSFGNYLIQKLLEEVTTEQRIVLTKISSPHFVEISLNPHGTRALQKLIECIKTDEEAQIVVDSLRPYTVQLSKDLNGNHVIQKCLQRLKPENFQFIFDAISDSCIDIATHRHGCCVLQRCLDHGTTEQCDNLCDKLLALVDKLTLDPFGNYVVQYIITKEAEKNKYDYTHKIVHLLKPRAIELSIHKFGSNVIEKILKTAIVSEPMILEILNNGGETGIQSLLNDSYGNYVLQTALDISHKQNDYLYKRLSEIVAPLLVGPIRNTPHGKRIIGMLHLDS
Assay: Mg; RNA-MaP; 20 mM Na-HEPES pH 7.4, 30 mM KOAc, 0.75 mM MgCl2, 0.1% Tween-20, 5% glycerol, 0.1 mg/mL BSA, 2 mM DTT; 25 C; 0.0125-409.6 nM protein
Conditions: tags: N-His6-TEV cleaved; C-SNAP kept, Cy3B-labelled; label: tethered on chip by stalled RNA polymerase
READOUT TYPE: Kd (nM)
A number alone suffices; assume nM.

Some binders with recorded Kd:
- BINDER: "Ic_S4_P5E.1_K5.1_C5.1_H5.1_A5.1_[T5A]_[T6C]_[A7C]_F5.1_[T9C]_[A10G]_T5.1 (ssRNA) RNA: UUUGACAACUGAUCGUUCUUUCUUGUAACCUCGUUCUUUCUCGAUCAGUUGUCUUU"
  Kd (nM): 610
- BINDER: "UCUCUUUGUAAUGUAUCUCUU (ssRNA) [Ic_S1_P4E.1_K4.1_C4.1_H4.1_A4.1_[T5A]_[A6T]_[T7G]_F4.1_T4.1]"
  Kd (nM): 11.2
- BINDER: "Id_iii_S2_P3E.8_K3.4_C3.3_[T-3A]_H3.1_A3.2_F3.1_T3.2 (ssRNA) RNA: UUUGAUUAAUAUGAUAUCGUUCUUUCUACUUGUAAAUAUAUUCUUUCUCGAUAUCAUAUUAAUCUUU"
  Kd (nM): 3.74
- BINDER: "Id_i_S4_P3E.7_K3.3_C3.3_[T-3C]_[C-2T]_[T-1G]_H3.3_A3.1_F3.1_T3.2 (ssRNA) RNA: UUUGACAACUGAUCGUUCUUUCUCUGACACUAUAUAUUCUUUCUCGAUCAGUUGUCUUU"
  Kd (nM): 424
- BINDER: "UCUCUUUGUGUUAAUAUCUCUU (ssRNA) [Ib_S1_P5E.1_K5.1_C5.1_H5.1_[A4G]_A5.1_F5.1_[T8A]_T5.1]"
  Kd (nM): 134

Turning now to a further record.
Report Kd for UCUCUUCUUAUAUAUUAAUUCUCUU (ssRNA) [Id_ii_S1_P4E.3_K4.2_C4.2_H4.2_A4.1_F4.1_T4.2_[G10A]] please.
18.9
